# TARGET_ENTITY: PAC1 receptor (Homo sapiens, UniProt P41586)
# Sequence (P41586 21-468): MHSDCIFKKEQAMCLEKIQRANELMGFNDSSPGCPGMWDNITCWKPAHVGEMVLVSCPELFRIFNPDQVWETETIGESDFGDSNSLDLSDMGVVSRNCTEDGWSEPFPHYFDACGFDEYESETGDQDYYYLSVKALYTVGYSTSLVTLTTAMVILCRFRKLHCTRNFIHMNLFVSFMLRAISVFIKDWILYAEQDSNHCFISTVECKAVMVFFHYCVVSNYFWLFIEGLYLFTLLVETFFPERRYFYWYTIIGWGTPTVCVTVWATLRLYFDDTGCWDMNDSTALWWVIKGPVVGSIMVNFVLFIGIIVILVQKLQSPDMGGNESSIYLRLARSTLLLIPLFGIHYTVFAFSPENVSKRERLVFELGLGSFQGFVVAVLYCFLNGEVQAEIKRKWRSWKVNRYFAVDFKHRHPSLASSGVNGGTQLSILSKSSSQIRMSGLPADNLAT
# PROTOCOL_DESCRIPTION: Inhibition of 20 nM PACAP-stimulated ERK activation in stable PAC1 receptor HEK cells (Western blot)
# Format: cell-based
# Parameters: expressed in transfected cells
# ASSAY_SETUP: 20 nM PACAP; HEK PAC1R stable cell lines; FIG. 3A; read-out: calculated IC50, attenuation of PACAP-induced ERK activation
READOUT_KIND: IC50 (µM)
Could you give me the number in µM? Just the number is fine.

q: I would be grateful if you could share the reported IC50 for O=C(Nc1ccc(S(=O)(=O)Nc2cc(F)cc(F)c2)cc1)c1cc2ccccc2[nH]1 .
a: 9
